Tested on: HT29 colon
procedure_details: NCI tumour cell line growth inhibition, 48 h; in the data active means GI50 below about 0.43 µM; inactive means the rest
Assign a class; possible classes are active, inactive

Record excerpt, results attached:
COc1ccc(C2C=C(c3ccc(OC)c(OC)c3)N=C3SC=CN32)c(Br)c1 (centres undefined)
inactive
CC(C)N(CCCNC(=O)Nc1ccc(C(C)(C)C)cc1)C[C@H]1O[C@@H](n2ccc3c(N)ncnc32)[C@H](O)[C@@H]1O
inactive

Input line: GET /call?item= O=C1C=CC2(O)OC/C(=C\c3ccccc3)C(O)=C2C1=O (centres undefined) returns the recorded outcome of this test.
Output line: inactive

Input line: GET /call?item= [2H]c1nc(C)nc([2H])c1-c1cc(NC[C@@H](C)c2cccc3c(C(=O)NC)ccnc23)ncn1 returns the recorded outcome of this test.
Output line: inactive
